experimental system: COX-2 (Ovis aries)
Construct: purchased Cayman chemicals, USA
Sequence (P79208 17-603): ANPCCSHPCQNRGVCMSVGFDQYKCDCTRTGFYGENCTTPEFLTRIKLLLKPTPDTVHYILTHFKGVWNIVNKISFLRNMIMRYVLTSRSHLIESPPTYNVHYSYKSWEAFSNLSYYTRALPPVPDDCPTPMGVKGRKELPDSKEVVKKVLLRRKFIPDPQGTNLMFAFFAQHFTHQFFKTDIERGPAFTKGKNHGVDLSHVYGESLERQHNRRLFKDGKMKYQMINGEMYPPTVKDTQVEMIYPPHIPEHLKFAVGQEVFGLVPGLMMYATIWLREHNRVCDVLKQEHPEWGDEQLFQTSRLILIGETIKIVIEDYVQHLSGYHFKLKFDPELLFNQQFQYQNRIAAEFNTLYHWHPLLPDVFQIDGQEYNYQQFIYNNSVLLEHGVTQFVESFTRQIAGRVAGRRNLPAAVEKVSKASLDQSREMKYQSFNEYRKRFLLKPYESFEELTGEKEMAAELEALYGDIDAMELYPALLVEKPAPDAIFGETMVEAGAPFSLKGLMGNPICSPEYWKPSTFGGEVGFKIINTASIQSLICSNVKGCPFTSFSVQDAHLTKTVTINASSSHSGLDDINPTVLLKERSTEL
method summary: In vitro cyclooxygenase inhibitory assay (Cayman colorimetric COX (ovine) inhibitor screening kit), COX-2
Format: biochemical
assay context: ratio of % inhibition COX-2/COX-1 at 2.0 μM
result type: S I (selectivity COX-2/COX-1)

Reference set (3 entries):
| compound | S I (selectivity COX-2/COX-1) |
| --- | --- |
| CCC(C)[C@@H](C(=O)Nc1cc(C)ccn1)N(C(=O)c1ccccc1)S(=O)(=O)c1ccc([N+](=O)[O-])cc1 (some centres unmarked) | 4.25 |
| Cc1ccnc(NC(=O)CN(C(=O)c2ccccc2)S(=O)(=O)c2ccc([N+](=O)[O-])cc2)c1 | 3.5 |
| Cc1ccnc(NC(=O)[C@H](Cc2ccccc2)N(C(=O)c2ccccc2)S(=O)(=O)c2ccc([N+](=O)[O-])cc2)c1 | 6.5 |

What the record says about "Cc1ccc(S(=O)(=O)N(C(=O)c2ccccc2)[C@@H](Cc2cc3ccccc3[nH]2)C(=O)Nc2cc(C)ccn2)cc1" : S I (selectivity COX-2/COX-1) is 18.67

Measured S I (selectivity COX-2/COX-1), "Cc1ccc(S(=O)(=O)N(CC(=O)Nc2cc(C)ccn2)C(=O)c2ccccc2)cc1" : 6.00

The value of S I (selectivity COX-2/COX-1) measured for the compound CCC(C)[C@@H](C(=O)Nc1cc(C)ccn1)N(C(=O)c1ccccc1)S(=O)(=O)c1ccc(C)cc1 (some centres unmarked) turned out to be 1.47

Sample "Cc1ccc(S(=O)(=O)N(C(=O)c2ccccc2)[C@H](C(=O)Nc2cc(C)ccn2)C(C)C)cc1" ; S I (selectivity COX-2/COX-1) observed: 1.50

The recorded S I (selectivity COX-2/COX-1) for entry "Cc1ccnc(NC(=O)[C@H](C(C)C)N(C(=O)c2ccccc2)S(=O)(=O)c2ccc([N+](=O)[O-])cc2)c1" equals 3.6

====

method summary: Determination of LD50 in mice
assay context: mouse, in vivo, ip; male mice, intraperitoneal, observation 72 h
Entries and their measured LD50 at 72 h follow.
The answer is to be given in µmol/kg; state only the numeric part.

Solved cases below.
| molecule | LD50 at 72 h, µmol/kg |
| --- | --- |
| Cc1ccc(S(=O)(=O)N(C(=O)c2ccccc2)[C@@H](Cc2ccccc2)C(=O)Nc2cc(C)ccn2)cc1 [Compound 7j] | 17.6 |
| Cc1ccc(S(=O)(=O)N(C(=O)c2ccccc2)[C@H](C(=O)Nc2cc(C)ccn2)C(C)C)cc1 [Compound 7n] | 20.1 |
| CCC(C)[C@@H](C(=O)Nc1cc(C)ccn1)N(C(=O)c1ccccc1)S(=O)(=O)c1ccc(C)cc1 (stereo partly shown) [Compound 7m] | 11.9 |
| Cc1ccc(-c2cc(C(F)(F)F)nn2-c2ccc(S(N)(=O)=O)cc2)cc1 [Celecoxib, celecoxib, reference compound] | 9.8 |
| Cc1ccc(S(=O)(=O)N(C(=O)c2ccccc2)[C@@H](CC(C)C)C(=O)Nc2cc(C)ccn2)cc1 [Compound 7l] | 12.5 |

Input Cc1ccnc(NC(=O)[C@@H]2CC(O)CN2S(=O)(=O)c2ccc([N+](=O)[O-])cc2)c1 (stereo partly shown) [Compound 7g] . Output LD50 at 72 h: 9.9

The value of LD50 at 72 h measured for the molecule Cc1ccnc(NC(=O)[C@H](Cc2ccccc2)N(C(=O)c2ccccc2)S(=O)(=O)c2ccc([N+](=O)[O-])cc2)c1 [Compound 7b] turned out to be 14.2

====

experimental system: COX-2 (Ovis aries, UniProt P79208)
Construct: purchased Cayman chemicals, USA
Sequence (P79208 17-603): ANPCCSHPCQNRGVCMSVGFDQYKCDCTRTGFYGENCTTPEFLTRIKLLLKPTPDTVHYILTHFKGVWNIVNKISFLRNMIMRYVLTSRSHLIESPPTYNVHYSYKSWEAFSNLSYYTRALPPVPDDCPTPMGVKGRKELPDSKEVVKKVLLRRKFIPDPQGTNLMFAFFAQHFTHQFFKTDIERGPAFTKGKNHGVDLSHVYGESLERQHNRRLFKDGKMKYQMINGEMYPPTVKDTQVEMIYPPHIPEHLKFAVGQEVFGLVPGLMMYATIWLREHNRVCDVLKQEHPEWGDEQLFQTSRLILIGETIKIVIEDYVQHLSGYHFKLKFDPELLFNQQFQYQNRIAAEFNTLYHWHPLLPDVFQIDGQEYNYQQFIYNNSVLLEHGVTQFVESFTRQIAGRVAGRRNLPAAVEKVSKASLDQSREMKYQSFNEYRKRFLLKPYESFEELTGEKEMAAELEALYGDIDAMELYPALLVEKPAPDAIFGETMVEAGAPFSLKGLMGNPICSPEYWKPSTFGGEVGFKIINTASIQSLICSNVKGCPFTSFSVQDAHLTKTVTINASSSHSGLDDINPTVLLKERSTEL
method summary: In vitro cyclooxygenase inhibitory assay (Cayman colorimetric COX (ovine) inhibitor screening kit), COX-2
Assay type: biochemical
assay context: concentration of 2.0 μM; read-out: COX-2 (%) inhibition
Measured inhibition at 2 µM, listed per entry for reference.

Here are 3 compounds together with their reported answers.
| compound | inhibition at 2 µM |
| --- | --- |
| CCC(C)[C@@H](C(=O)Nc1cc(C)ccn1)N(C(=O)c1ccccc1)S(=O)(=O)c1ccc([N+](=O)[O-])cc1 (stereo partly shown) [Compound 7e] | 17% |
| Cc1ccc(S(=O)(=O)N(C(=O)c2ccccc2)[C@@H](Cc2cc3ccccc3[nH]2)C(=O)Nc2cc(C)ccn2)cc1 [Compound 7k] | 56% |
| Cc1ccc(S(=O)(=O)N(C(=O)c2ccccc2)[C@@H](CC(C)C)C(=O)Nc2cc(C)ccn2)cc1 [Compound 7l] | 19% |

// below: inhibition at 2 µM requested for another compound
Reported inhibition at 2 µM of CCC(C)[C@@H](C(=O)Nc1cc(C)ccn1)N(C(=O)c1ccccc1)S(=O)(=O)c1ccc(C)cc1 (stereo partly shown) [Compound 7m] : 25%

====

method summary: Determination of LD50 in mice
assay context: mouse, in vivo, ip; male mice, intraperitoneal, observation 72 h
Response field label takes Y when LD50 at 72 h is strictly below 10 µmol/kg and N in all other cases.

| compound | assigned label |
| --- | --- |
| CCC(C)[C@@H](C(=O)Nc1cc(C)ccn1)N(C(=O)c1ccccc1)S(=O)(=O)c1ccc([N+](=O)[O-])cc1 (stereo partly shown) | N |

Now for another entry.
In: For "Cc1ccnc(NC(=O)[C@H](Cc2cc3ccccc3[nH]2)N(C(=O)c2ccccc2)S(=O)(=O)c2ccc([N+](=O)[O-])cc2)c1" , is the recorded LD50 at 72 h below the cut-off of 10 µmol/kg?
Out: Y

====

experimental system: COX-2 (Ovis aries)
Construct: purchased Cayman chemicals, USA
method summary: In vitro cyclooxygenase inhibitory assay (Cayman colorimetric COX (ovine) inhibitor screening kit), COX-2
Type: biochemical
assay context: concentration of 2.0 μM; read-out: COX-2 (%) inhibition
result type: inhibition at 2 µM
Record the result as number plus unit.

The following compounds have reported results that may help.
| compound | inhibition at 2 µM |
| --- | --- |
| Cc1ccnc(NC(=O)CN(C(=O)c2ccccc2)S(=O)(=O)c2ccc([N+](=O)[O-])cc2)c1 [Compound 7a] | 49% |
| Cc1ccnc(NC(=O)[C@H](Cc2ccccc2)N(C(=O)c2ccccc2)S(=O)(=O)c2ccc([N+](=O)[O-])cc2)c1 [Compound 7b] | 52% |
| Cc1ccc(S(=O)(=O)N(C(=O)c2ccccc2)[C@@H](Cc2ccccc2)C(=O)Nc2cc(C)ccn2)cc1 [Compound 7j] | 30% |
| Cc1ccc(S(=O)(=O)N(CC(=O)Nc2cc(C)ccn2)C(=O)c2ccccc2)cc1 [Compound 7i] | 18% |
| Cc1ccc(S(=O)(=O)N(C(=O)c2ccccc2)[C@H](C(=O)Nc2cc(C)ccn2)C(C)C)cc1 [Compound 7n] | 48% |
| Cc1ccnc(NC(=O)[C@H](C(C)C)N(C(=O)c2ccccc2)S(=O)(=O)c2ccc([N+](=O)[O-])cc2)c1 [Compound 7f] | 54% |

Bench note, COX-2 (Ovis aries): Cc1ccnc(NC(=O)[C@H](CC(C)C)N(C(=O)c2ccccc2)S(=O)(=O)c2ccc([N+](=O)[O-])cc2)c1 [Compound 7d] , inhibition at 2 µM reads 20%

Data credit: paper PMC5602572
